procedure-details: MM1S myeloma cell viability, profiling panel, resazurin fluorescence, basal, 24 h, PK04 Diversity Set (AID 1174);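 further: MM1S multiple myeloma cell line; test concentration not given here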
test-conditions: higher = more signal, called active from +8 up or from −8 down
measure: z-score
Answers are plain numbers.

compound	number
COCCOC(=O)N1C(=O)[C@@]2(c3cc(C#CCCO)ccc31)[C@H](c1ccc(O)cc1)N1[C@H](c3ccccc3)[C@H](c3ccccc3)OC(=O)[C@H]1[C@@H]2C(=O)NC[C@H](O)c1ccccc1	0.763
COC(=O)[C@@]1(Cc2ccc(F)cc2)[C@@H]2C(=CC(=O)[C@H]2CC(=O)C(=O)N2CCCC2)CN1C(=O)c1ccccc1	-2.67

Ask: Please report the recorded z-score for C[C@H]1C2[C@H](Cc3ccccc3)NC(=O)[C@]23C(=O)N[C@@H](Cc2ccccc2)C(=O)N2CCC[C@H]2C(=O)NC/C=C/CC/C=C/C3[C@@H]2O[C@]12C (stereo partly drawn) .
Result: -0.299
